Data origin: paper doi:10.1101/2022.03.07.483330

biological target: human wild-type DLL4 (N-EGF5, residues 27-400) (human, UniProt Q9NR61 27-400); test: SPR
Sequence (Q9NR61 27-400): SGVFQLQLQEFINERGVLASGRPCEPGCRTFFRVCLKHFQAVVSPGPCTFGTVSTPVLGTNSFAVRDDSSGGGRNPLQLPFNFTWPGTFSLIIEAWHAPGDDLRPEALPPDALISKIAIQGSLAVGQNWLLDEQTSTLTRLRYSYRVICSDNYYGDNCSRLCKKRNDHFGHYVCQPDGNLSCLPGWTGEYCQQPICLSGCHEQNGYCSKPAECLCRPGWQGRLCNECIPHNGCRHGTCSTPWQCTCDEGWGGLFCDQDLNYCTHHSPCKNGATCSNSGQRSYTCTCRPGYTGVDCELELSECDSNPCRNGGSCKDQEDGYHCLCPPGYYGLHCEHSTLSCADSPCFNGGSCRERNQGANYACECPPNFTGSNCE
Quantity name: binding result

[[record]]
binder = "human Notch4 (EGF7-12, residues 276-511), biotinylated (domain or fragment, UniProt Q99466 276-511, looked up, biotin on the C-terminal BAP-tag (BirA)) NPDNCVSHQCQNGGTCQDGLDTYTCLCPETWTGWDCSEDVDECETQGPPHCRNGGTCQNSAGSFHCVCVSGWGGTSCEENLDDCIAATCAPGSTCIDRVGSFSCLCPPGRTGLLCHLEDMCLSQPCHGDAQCSTNPLTGSTLCLCQPGYSGPTCHQDLDECLMAQQGPSPCEHGGSCLNTPGSFNCLCPPGYTGSRCEADHNECLSQPCHPGSTCLDLLATFHCLCPPGLEGQLCE"
measured = "binds"

[[record]]
binder = "human Notch3 (EGF5-12, residues 197-505), biotinylated (domain or fragment, UniProt Q9UM47 197-505, looked up, biotin on the C-terminal BAP-tag (BirA)) PAVPCAPSPCRNGGTCRQSGDLTYDCACLPGFEGQNCEVNVDDCPGHRCLNGGTCVDGVNTYNCQCPPEWTGQFCTEDVDECQLQPNACHNGGTCFNTLGGHSCVCVNGWTGESCSQNIDDCATAVCFHGATCHDRVASFYCACPMGKTGLLCHLDDACVSNPCHEDAICDTNPVNGRAICTCPPGFTGGACDQDVDECSIGANPCEHLGRCVNTQGSFLCQCGRGYTGPRCETDVNECLSGPCRNQATCLDRIGQFTCICMAGFTGTYCEVDIDECQSSPCVNGGVCKDRVNGFSCTCPSGFSGSTCQ"
measured = "binds"

[[record]]
binder = "mouse Notch1 (EGF6-13, residues 221-526), biotinylated (domain or fragment, UniProt Q01705 221-526, looked up, biotin on the C-terminal BAP-tag (BirA)) PCSPSPCQNGGTCRPTGDTTHECACLPGFAGQNCEENVDDCPGNNCKNGGACVDGVNTYNCRCPPEWTGQYCTEDVDECQLMPNACQNGGTCHNTHGGYNCVCVNGWTGEDCSENIDDCASAACFQGATCHDRVASFYCECPHGRTGLLCHLNDACISNPCNEGSNCDTNPVNGKAICTCPSGYTGPACSQDVDECALGANPCEHAGKCLNTLGSFECQCLQGYTGPRCEIDVNECISNPCQNDATCLDQIGEFQCICMPGYEGVYCEINTDECASSPCLHNGHCMDKINEFQCQCPKGFNGHLCQ"
measured = "binds"

[[record]]
binder = "human Notch2 (EGF6-13, residues 221-530), biotinylated (domain or fragment, UniProt Q04721 221-530, looked up, biotin on the C-terminal BAP-tag (BirA)) LYVPCAPSPCVNGGTCRQTGDFTFECNCLPGFEGSTCERNIDDCPNHRCQNGGVCVDGVNTYNCRCPPQWTGQFCTEDVDECLLQPNACQNGGTCANRNGGYGCVCVNGWSGDDCSENIDDCAFASCTPGSTCIDRVASFSCMCPEGKAGLLCHLDDACISNPCHKGALCDTNPLNGQYICTCPQGYKGADCTEDVDECAMANSNPCEHAGKCVNTDGAFHCECLKGYAGPRCEMDINECHSDPCQNDATCLDKIGGFTCLCMPGFKGVHCELEINECQSNPCVNNGQCVDKVNRFQCLCPPGFTGPVCQ"
measured = "binds"

